Here the recorded normalized growth is given for each entry.
assay: chemical genetic growth profiling, strain panel (AID 1159580);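 further: tested at 20 µM; growth read once vehicle control cultures reached saturation at 30 °C; 1 = growth at the plate median or of vehicle wells; lower values mean less growth of the strain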; conditions: S. cerevisiae deletion strains, growth OD, locus YJL134W, strain LCB3, active compounds read low
Out of some 5,500 compounds screened, about 2,000 (36%) were called active. Roughly 18% stayed inconclusive and do not appear here. The list shows a part of the results.
Reply briefly: the number, and no unit.

Below: 5 compounds and their reported normalized growth.
| compound | normalized growth |
| --- | --- |
| O=c1c(O)c(-c2ccc(O)c(O)c2)oc2cc(O)cc(O)c12 | 0.988 |
| O=c1cc(-c2ccc(O)cc2)oc2cc(O[C@@H]3O[C@H](CO)[C@@H](O)[C@H](O)[C@H]3O)cc(O)c12 | 0.983 |
| CC1CC[C@]2(NC1)O[C@H]1CC3C4CC[C@H]5C[C@@H](O)CC[C@]5(C)C4CC[C@]3(C)[C@H]1[C@@H]2C (some centres not stated) | 0.0651 |
| CC1O[C@@H](Oc2c(-c3ccc(O)c(O)c3)oc3cc(O)cc(O)c3c2=O)[C@H](O)[C@H](O)[C@H]1O (some centres not stated) | 0.997 |
| C[C@@H]1CC[C@@]2(OC1)O[C@H]1CC3C4CC[C@H]5C[C@@H](O)CC[C@]5(C)C4CC[C@]3(C)[C@H]1[C@@H]2C (some centres not stated) | 0.993 |

# input Report normalized growth for C[C@@H]1CC[C@@]2(NC1)O[C@H]1C[C@H]3C4CC=C5C[C@@H](O)CC[C@]5(C)C4CC[C@]3(C)C1[C@@H]2C (some centres not stated) please.
# output 0.0822

# input Continue with CC1CC[C@@]2(OC1)O[C@H]1CC3C4CC[C@@H]5CC(=O)CC[C@]5(C)C4CC[C@]3(C)[C@H]1[C@@H]2C (some centres not stated)
# output 0.991

----------
Here the recorded normalized growth is given for each entry.
assay: chemical genetic growth profiling, strain panel (AID 1159580);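 further: tested at 20 µM; growth read once vehicle control cultures reached saturation at 30 °C; 1 = growth at the plate median or of vehicle wells; lower values mean less growth of the strain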; details: S. cerevisiae deletion strains, growth OD, locus YJR066W, strain TOR1, active compounds read low
Hit rate of the full screen: of about 5,500 compounds, about 2,000 (36%) were called active. Not shown: some 18% with an inconclusive outcome. The list shows a part of the results. Where a SMILES comes first, the peptide text is derived from it.
Reply briefly: the number, and no unit.

Below: 6 compounds and their reported normalized growth.
| compound | normalized growth |
| --- | --- |
| Cc1cc(Cl)ccc1NNC(=O)c1sccc1Cl | 0.835 |
| NC(N)=NC(=O)c1nc(Cl)c(N2CCCCCC2)nc1N | 1.02 |
| COCCCNC(=S)N/N=C\c1cc(Br)ccc1O | 1.02 |
| O=c1c(O)c(-c2ccc(O)c(O)c2)oc2c(O)c(O)cc(O)c12 | 0.967 |
| COC1=CC(=O)C(C(=O)c2ccccc2)=CC1=O | 0.94 |
| CC1(C)C(=O)C=C[C@@]2(C)C1C=C[C@]1(C)C2CC[C@@]2(C)[C@H](c3ccoc3)OC(=O)C3OC321 (some centres not stated) | 0.894 |

# input Report normalized growth for CCNC(=S)N/N=C\c1cc(Cl)cc(Cl)c1O please.
# output 0.509

# input Continue with COc1ccc2ccc(=O)oc2c1
# output 0.934

# input Continue with COC(=O)[C@H](Cc1ccccc1)NC(=O)[C@@H](N)CC(=O)O (H-Asp-Phe-OMe)
# output 0.961

# input Continue with CC(C)(C)NC(=S)N/N=C\c1ccccc1O
# output 0.789

# input Continue with COc1ccc2c(c1)CCC1C2CC[C@@]2(C)C1CC[C@@H]2O (some centres not stated)
# output 0.907

# input Continue with Cc1cc(Cl)ccc1NNC(=O)c1sccc1Br
# output 0.886

# input Continue with CCOC(=O)c1c(C)cc(OC)cc1O
# output 0.9

# input Continue with CCCCCCC(C)OC(=O)COc1ccc(Cl)cc1Cl (configuration not stated)
# output 0.949

# input Continue with CC(=O)NC(Cc1ccccc1)C(=O)O (configuration not stated)
# output 0.91

# input Continue with Cc1cc(OC(=O)c2c(C)cc(O)cc2O)cc(O)c1C(=O)O
# output 0.894

# input Continue with CC(NC(=S)N/N=C\c1ccccc1O)c1ccccc1 (configuration not stated)
# output 0.943

# input Continue with CC(=O)O[C@@H]1CC2C(C)(C)C(=O)C=C[C@]2(C)C2CC[C@@]3(C)[C@H](c4ccoc4)OC(=O)[C@H]4O[C@]43[C@@]21C (some centres not stated)
# output 0.932

# input Continue with COc1ccccc1NC(=S)N/N=C\c1ccccc1O
# output 0.942

# input Continue with NC(CSCSCC(N)C(=O)O)C(=O)O (configuration not stated)
# output 0.979

# input Continue with C=C(C)[C@H]1COc2cc3oc(=O)ccc3cc2O1
# output 0.926

# input Continue with CCOC(=O)c1c(C)cc(O)cc1O
# output 0.853

# input Continue with O=C(Nc1ccccc1)Nc1ccc(Cl)cc1[N+](=O)[O-]
# output 0.903

# input Continue with Oc1ccc2c(c1)OCC1(O)Cc3cc(O)c(O)cc3C21 (configuration not stated)
# output 0.906

# input Continue with CC(=O)[C@@]1(O)CCC2C3C[C@H](C)C4=CC(=O)C=CC4(C)[C@@]3(F)[C@@H](O)C[C@@]21C (some centres not stated)
# output 0.936

# input Continue with CC1(C)C(=O)C=C[C@@]2(C)C1CC(=O)[C@]1(C)C2CC[C@@]2(C)[C@H](c3ccoc3)OC(=O)[C@H]3O[C@]321 (some centres not stated)
# output 0.927

# input Continue with C[C@]12CCC3c4ccc(OS(=O)(=O)O)cc4CCC3C1CC[C@H]2O (some centres not stated)
# output 0.983

# input Continue with COCCCNC(=S)N/N=C\c1cc(Cl)cc(Cl)c1O
# output 0.957

# input Continue with COc1ccc(Cl)cc1C(=O)NCCc1ccc(S(=O)(=O)NC(=O)NC2CCCCC2)cc1
# output 0.934

# input Continue with O=C1/C(=C/c2ccccn2)CCc2ccccc21
# output 0.855

# input Continue with O=c1ccc2cc(OC3OC(CO)C(O)C(O)C3O)c(O)cc2o1 (configuration not stated)
# output 0.919

# input Continue with CC12CCC3c4ccc(OC(=O)c5ccccc5)cc4CCC3C1CCC2O (configuration not stated)
# output 0.963

# input Continue with CCC(=O)c1c(O)cc(O)cc1O
# output 0.97
